Biological target: FGFR2 (h) (Homo sapiens)
Sequence (P21802 22-821): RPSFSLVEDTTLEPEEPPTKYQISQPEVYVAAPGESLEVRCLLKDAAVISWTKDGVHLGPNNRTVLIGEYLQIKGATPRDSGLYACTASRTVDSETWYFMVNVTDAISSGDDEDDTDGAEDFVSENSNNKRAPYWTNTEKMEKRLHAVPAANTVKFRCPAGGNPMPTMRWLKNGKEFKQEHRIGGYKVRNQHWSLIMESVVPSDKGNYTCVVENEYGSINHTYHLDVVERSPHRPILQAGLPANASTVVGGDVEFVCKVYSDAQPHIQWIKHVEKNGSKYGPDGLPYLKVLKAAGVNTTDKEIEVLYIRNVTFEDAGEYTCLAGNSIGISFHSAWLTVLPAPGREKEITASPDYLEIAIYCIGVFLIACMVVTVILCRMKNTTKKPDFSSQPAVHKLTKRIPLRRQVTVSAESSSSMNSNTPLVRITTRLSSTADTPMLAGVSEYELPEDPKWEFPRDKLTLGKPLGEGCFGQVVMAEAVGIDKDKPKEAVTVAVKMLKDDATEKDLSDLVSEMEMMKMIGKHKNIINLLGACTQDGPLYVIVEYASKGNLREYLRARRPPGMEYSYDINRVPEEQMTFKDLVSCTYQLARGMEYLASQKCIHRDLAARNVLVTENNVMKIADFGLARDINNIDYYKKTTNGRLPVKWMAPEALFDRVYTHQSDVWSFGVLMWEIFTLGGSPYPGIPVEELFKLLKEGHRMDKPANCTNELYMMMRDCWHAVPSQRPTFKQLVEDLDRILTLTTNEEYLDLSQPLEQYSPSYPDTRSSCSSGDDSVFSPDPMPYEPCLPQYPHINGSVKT
Test: FGFR2 (enzymatic assay), TR-FRET
Format: biochemical
Conditions: enzymatic assay; read-out: FGFR 2 pIC50 (converted)
Ranges used to classify IC50: low (below 2 nM), medium (2 nM to below 3 nM), high (3 nM or more)

Study these solved cases before continuing.
compound="COc1cc(OC)c(F)c(/N=c2\\ccc3ncc(-c4cnn(C)c4)nc3n2CC2CC2)c1F (single isomer, unassigned) [Compound 267]" category=high
compound="COc1cc(/N=c2\\ccc3ncc(-c4cnn(C)c4)nc3n2Cc2cn[nH]c2)c(F)c(OC)c1 [Compound 155]" category=low
compound="COc1cc(OC)c(F)c(N(Cc2cc(C)no2)c2ccc3ncc(-c4cnn(C)c4)nc3n2)c1 [Compound 185]" category=low

**Query** # bin label for COc1cc(/N=c2\ccc3ncc(-c4cnn(C)c4)nc3n2Cc2c(C)noc2C)c(F)c(OC)c1 [Compound 179]
**Result** medium

**Query** # bin label for COc1cc(OC)c(F)c(N(Cc2ncc[nH]2)c2ccc3ncc(-c4cnn(C(CO)CCl)c4)nc3n2)c1 (stereo not drawn) [Compound 209]
**Result** medium

**Query** # bin label for COc1ccc(Cl)c(N(CC2CCC(=O)N2)c2ccc3ncc(-c4cnn(C)c4)nc3n2)c1Cl (single isomer, unassigned) [Compound 91]
**Result** high

**Query** # bin label for COC(=O)CN(c1ccc2ncc(-c3cnn(C)c3)nc2n1)c1cc(OC)cc(OC)c1F [Compound 214]
**Result** medium

**Query** # bin label for COc1cc(OC)cc(N(Cc2n[nH]c(=O)o2)c2ccc3ncc(-c4cnn(C)c4)nc3n2)c1 [Compound 229]
**Result** high

###

Molecular target: FGFR1 (h) (Homo sapiens)
Sequence (P11362 22-822): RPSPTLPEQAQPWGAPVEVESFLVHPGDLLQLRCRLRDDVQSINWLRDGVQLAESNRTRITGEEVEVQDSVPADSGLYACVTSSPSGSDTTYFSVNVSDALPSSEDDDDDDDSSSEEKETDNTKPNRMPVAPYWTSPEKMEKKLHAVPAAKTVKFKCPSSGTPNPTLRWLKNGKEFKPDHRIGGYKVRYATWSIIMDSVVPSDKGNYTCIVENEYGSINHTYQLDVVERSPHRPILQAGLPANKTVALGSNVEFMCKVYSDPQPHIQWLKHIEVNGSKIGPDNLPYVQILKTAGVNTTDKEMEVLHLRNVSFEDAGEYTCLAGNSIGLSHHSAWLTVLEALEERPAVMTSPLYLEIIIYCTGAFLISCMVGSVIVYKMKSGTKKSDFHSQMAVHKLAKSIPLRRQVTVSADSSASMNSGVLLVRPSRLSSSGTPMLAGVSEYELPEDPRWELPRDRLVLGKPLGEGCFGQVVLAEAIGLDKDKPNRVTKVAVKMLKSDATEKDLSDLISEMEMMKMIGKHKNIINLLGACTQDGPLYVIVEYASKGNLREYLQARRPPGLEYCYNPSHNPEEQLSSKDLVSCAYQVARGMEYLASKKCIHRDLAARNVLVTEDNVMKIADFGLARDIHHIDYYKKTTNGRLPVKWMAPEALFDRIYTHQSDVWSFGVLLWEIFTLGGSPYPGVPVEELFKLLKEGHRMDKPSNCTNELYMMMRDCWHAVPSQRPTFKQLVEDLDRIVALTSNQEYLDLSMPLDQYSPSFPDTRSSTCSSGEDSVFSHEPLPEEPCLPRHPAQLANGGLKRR
Experiment: FGFR1 (enzymatic assay), TR-FRET
Format: biochemical
Conditions: read-out: FGFR 1 pIC50 (converted)
Examples of molecules with documented IC50 follow.
Value expressed in nM; do not type the unit.

molecule=COc1cc(O)c(F)c(N(Cc2ncc[nH]2)c2ccc3ncc(-c4cnn(C)c4)nc3n2)c1 valueunits=nM endpointvalue=0.741
molecule="COc1cc(/N=c2\\ccc3ncc(-c4cnn(C)c4)nc3n2CC2CCC(=O)N2)cc(OC)c1 (stereo not shown)" valueunits=nM endpointvalue=5.13
molecule=COc1cc(OC)c(F)c(N(Cc2cn[nH]c2)c2ccc3ncc(-c4cnn(C)c4)nc3n2)c1 valueunits=nM endpointvalue=0.851

Would you kindly look at the next entry?
IC50 for COc1cc(OC)c(F)c(N(CC(=O)NCCO)c2ccc3ncc(-c4cnn(C)c4)nc3n2)c1 is 7.59

###

Target: Ba/F3-FGFR4-transfected cells (Homo sapiens, UniProt P22455)
Sequence (P22455 whole entry, change not shown): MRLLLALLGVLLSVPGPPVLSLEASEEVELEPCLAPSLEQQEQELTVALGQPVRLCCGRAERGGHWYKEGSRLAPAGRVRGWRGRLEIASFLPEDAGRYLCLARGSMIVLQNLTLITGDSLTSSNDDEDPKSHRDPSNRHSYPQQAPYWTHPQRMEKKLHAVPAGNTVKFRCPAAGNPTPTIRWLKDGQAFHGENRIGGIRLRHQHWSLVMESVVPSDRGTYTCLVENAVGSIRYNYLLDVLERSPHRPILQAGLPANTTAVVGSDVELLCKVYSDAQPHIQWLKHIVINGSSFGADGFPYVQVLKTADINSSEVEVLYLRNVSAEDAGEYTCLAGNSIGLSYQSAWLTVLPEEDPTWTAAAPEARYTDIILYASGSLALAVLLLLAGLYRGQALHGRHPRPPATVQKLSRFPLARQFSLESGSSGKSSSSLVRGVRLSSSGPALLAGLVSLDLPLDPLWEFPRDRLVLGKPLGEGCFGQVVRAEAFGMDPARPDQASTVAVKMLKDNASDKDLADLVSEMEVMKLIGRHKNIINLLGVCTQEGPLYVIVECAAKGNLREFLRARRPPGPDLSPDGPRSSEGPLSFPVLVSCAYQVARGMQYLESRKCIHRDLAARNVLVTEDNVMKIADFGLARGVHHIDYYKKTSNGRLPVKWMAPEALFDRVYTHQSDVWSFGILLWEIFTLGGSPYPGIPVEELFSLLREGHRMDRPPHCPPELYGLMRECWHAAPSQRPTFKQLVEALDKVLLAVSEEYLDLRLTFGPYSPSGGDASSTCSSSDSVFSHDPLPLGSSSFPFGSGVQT
Assay: Ba/F3-FGFR4 cellular proliferation assay, Alamar Blue
Type: cell-based
property: BAF3-FGFR4 pIC50
Enter the number alone.

Here is how some compounds turned out for BAF3-FGFR4 pIC50.
compound="COc1cc(OC)c(F)c(N(CC(O)COC(C)C)c2ccc3ncc(-c4cnn(C)c4)nc3n2)c1F (stereo not drawn) [Compound 62]" systemname="Ba/F3-FGFR4-transfected cells (Homo sapiens, UniProt P22455)" endpointvalue=7.92
compound="COCC(O)CN(c1cc(OC)cc(OC)c1)c1ccc2ncc(-c3cnn(C)c3)nc2n1 (stereo not drawn)" systemname="Ba/F3-FGFR4-transfected cells (Homo sapiens, UniProt P22455)" endpointvalue=6.53
compound=COc1cc(OC)c(F)c(N(CC(=O)NC(C)C)c2ccc3ncc(-c4cnn(C)c4)nc3n2)c1 systemname="Ba/F3-FGFR4-transfected cells (Homo sapiens, UniProt P22455)" endpointvalue=6.00
compound="COc1cc(OC)c(F)c(/N=c2\\ccc3ncc(-c4cnn(C)c4)nc3n2CC2CCC(=O)N2)c1F (stereo not drawn) [Compound 47]" systemname="Ba/F3-FGFR4-transfected cells (Homo sapiens, UniProt P22455)" endpointvalue=6.70
compound=COc1cc(OC)c(F)c(N(Cc2ncc[nH]2)c2ccc3ncc(-c4ccncc4)nc3n2)c1 systemname="Ba/F3-FGFR4-transfected cells (Homo sapiens, UniProt P22455)" endpointvalue=7.29
compound=COc1cc(OC)c(F)c(N(Cc2nc(Br)c[nH]2)c2ccc3ncc(-c4cnn(C)c4)nc3n2)c1 systemname="Ba/F3-FGFR4-transfected cells (Homo sapiens, UniProt P22455)" endpointvalue=8.06

BAF3-FGFR4 pIC50 for COc1cc(OC)cc(N(CC(O)COC(C)C)c2ccc3ncc(-c4cnn(CC(O)COC(C)C)c4)nc3n2)c1 (stereo not drawn) is 6.37

BAF3-FGFR4 pIC50 for COc1cc(OC)c(F)c(N(CCCO)c2ccc3ncc(-c4cnn(C)c4)nc3n2)c1F (single isomer, unassigned) is 7.7

BAF3-FGFR4 pIC50 for COc1cc(OC)cc(N(Cc2ncc[nH]2)c2ccc3ncc(-c4cccnc4)nc3n2)c1 is 7.17

BAF3-FGFR4 pIC50 for COc1cc(OC)c(Cl)c(N(C[C@H]2CCC(=O)N2)c2ccc3ncc(-c4cnn(C)c4)nc3n2)c1Cl is 5.95

BAF3-FGFR4 pIC50 for COc1cc(OC)c(F)c(/N=c2\ccc3ncc(-c4cnn(C)c4)nc3n2CCN)c1F is 7.14

BAF3-FGFR4 pIC50 for COc1cc(OC)cc(N(CC2CCCCO2)c2ccc3ncc(-c4cnn(C)c4)nc3n2)c1 (stereo not drawn) is 6.36

BAF3-FGFR4 pIC50 for COc1cc(/N=c2\ccc3ncc(-c4cnn(C)c4)nc3n2CC2CCCOC2)cc(OC)c1 (stereo not drawn) is 7.13

// data source = patent US9309242B2
